Entry source: patent US20260053834A1

Target: AKT1 WT (Homo sapiens, UniProt P31749)
Sequence (P31749 whole entry): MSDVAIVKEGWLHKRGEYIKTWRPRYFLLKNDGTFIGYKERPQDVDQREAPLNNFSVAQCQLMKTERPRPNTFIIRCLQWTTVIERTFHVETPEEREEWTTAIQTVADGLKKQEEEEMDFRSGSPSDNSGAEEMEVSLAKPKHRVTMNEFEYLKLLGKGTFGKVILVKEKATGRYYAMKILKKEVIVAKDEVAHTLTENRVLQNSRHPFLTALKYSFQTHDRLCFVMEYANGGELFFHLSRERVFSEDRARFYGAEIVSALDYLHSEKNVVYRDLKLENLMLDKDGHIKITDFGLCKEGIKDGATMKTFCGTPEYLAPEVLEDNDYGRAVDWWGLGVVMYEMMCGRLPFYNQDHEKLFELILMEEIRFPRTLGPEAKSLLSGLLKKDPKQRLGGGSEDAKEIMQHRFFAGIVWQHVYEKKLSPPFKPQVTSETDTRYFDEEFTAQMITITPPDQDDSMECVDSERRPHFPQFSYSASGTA
Assay: Live cell target engagement by NanoBRET competitive probe displacement, AKT1 WT
Settings: transfected HEK293 cells, 2 h at 37° C., read-out: AKT1 WT IC50: GeoMean IC50
pIC50: −log10 of the molar value.
Each record here notes measured pIC50.

Nc1ncccc1-c1nc2ccc(-c3ccccc3)nc2n1-c1ccc2c(c1)CC[C@@H]2NC(=O)c1ccc(NC(=O)C2CC2)c(C=O)c1	7.00 to 8.00
[2H]C(=O)c1cc(C(=O)N[C@H]2CCc3cc(-n4c(-c5cccnc5N)nc5ccc(-n6ccc(F)n6)nc54)ccc32)ccc1O	5.70 to 7.00
Nc1ncccc1-c1nc2ccc(-c3ccccc3)nc2n1-c1ccc2c(c1)CC[C@@H]2NC(=O)c1ccc(B(O)O)c(C=O)c1	7.00 to 8.00

Now look at this entry.
Prompt: Which pIC50 is listed for Cc1coc(-c2ccc3nc(-c4cccnc4N)n(-c4ccc5c(c4)CC[C@@H]5NC(=O)c4ccc(O)c(C=O)c4)c3n2)n1 ?
Completion: 7.00 to 8.00

====

Each record here notes measured IC50.
Molecular target: AKT2 (Homo sapiens, UniProt P31751)
Sequence (P31751 whole entry): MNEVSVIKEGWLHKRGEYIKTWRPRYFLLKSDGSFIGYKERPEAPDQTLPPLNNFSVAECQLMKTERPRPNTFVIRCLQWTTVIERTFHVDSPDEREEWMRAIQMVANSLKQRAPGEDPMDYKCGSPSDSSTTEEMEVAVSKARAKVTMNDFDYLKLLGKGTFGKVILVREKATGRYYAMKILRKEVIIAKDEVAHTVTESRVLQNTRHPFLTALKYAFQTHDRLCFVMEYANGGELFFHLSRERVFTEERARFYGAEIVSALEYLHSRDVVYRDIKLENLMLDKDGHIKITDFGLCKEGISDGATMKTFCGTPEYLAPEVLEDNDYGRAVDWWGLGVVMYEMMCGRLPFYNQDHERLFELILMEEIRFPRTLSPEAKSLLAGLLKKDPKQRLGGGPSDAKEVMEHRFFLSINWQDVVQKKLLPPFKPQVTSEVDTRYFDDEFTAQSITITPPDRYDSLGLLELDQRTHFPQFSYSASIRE
Test: Live cell target engagement by NanoBRET competitive probe displacement, AKT2
Conditions: transfected HEK293 cells, 2 h at 37° C., read-out: AKT2 IC50: GeoMean IC50
Experimental: Determining live cell AKT1 E17K, AKT1 WT, and AKT2 target engagement by NanoBRET competitive probe displacement. Live cell target engagement assays were performed as described (Vasta, J. D. et al. Cell Chem Biol 2018, 25(11), 206-214). […] After incubation for 2 h at 37° C., luciferase substrate and extracellular luciferase inhibitor were added to all wells, and luminescent intensity at 460 nm and 600 nm were measured on a multimode plate-reader. […]

A selection of reference data follows.
Cc1cc(-n2ccc(F)n2)nc2c1nc(-c1cccnc1N)n2-c1ccc2c(c1)CC[C@@H]2NC(=O)c1ccc(O)c(C=O)c1	100 to 2000 nM
Cc1cnc(-c2ccc3nc(-c4cccnc4N)n(-c4ccc5c(c4)CC[C@@H]5NC(=O)c4ccc(O)c(C=O)c4)c3n2)o1	100 to 2000 nM

Now look at this entry.
Prompt: Which IC50 is listed for Nc1ncccc1-c1nc2ccc(-c3ccccc3)nc2n1-c1ccc2c(c1)CC[C@H]2NCCc1ccc(C=O)c(O)c1 ?
Completion: ≥ 2000 nM

====

Biological target: AKT1 E17K (Homo sapiens, UniProt P31749, E17K)
Sequence (P31749 whole entry E17K): as the sequence (P31749 whole entry) above, with E17K counted along it
Experiment: Live cell target engagement by NanoBRET competitive probe displacement, AKT1 E17K
Settings: transfected HEK293 cells, 2 h at 37° C., read-out: AKT1 E17K IC50: GeoMean IC50
Each record here notes measured IC50.

Nc1ncccc1-c1nc2ccc(-n3cccn3)nc2n1-c1ccc2c(c1)CC[C@@H]2NC(=O)c1cc(C=O)c(O)c2ncoc12	100 to 2000 nM
Nc1ncccc1-c1nc2ccc(C(F)(F)F)nc2n1-c1ccc2c(c1)CC[C@@H]2NC(=O)c1ccc(O)c(C=O)c1	100 to 2000 nM
N#Cc1cnn(-c2ccc3nc(-c4cccnc4N)n(-c4ccc5c(c4)CC[C@@H]5NC(=O)c4ccc(O)c(C=O)c4)c3n2)c1	10 to 100 nM

Prompt: Which IC50 is listed for CCc1cc(-n2cccn2)nc2c1nc(-c1cccnc1N)n2-c1ccc2c(c1)CC[C@@H]2NC(=O)c1ccc(O)c(C=O)c1 ?
Completion: 10 to 100 nM

Prompt: Which IC50 is listed for Nc1ncccc1-c1nc2ccc(-c3ccccc3)nc2n1-c1ccc2c(c1)CC[C@@H]2NC(=O)c1cc(C=O)c(O)c(Cl)n1 ?
Completion: 10 to 100 nM

Prompt: Which IC50 is listed for Nc1ncccc1-c1nc2ccc(-n3cccn3)nc2n1-c1ccc2c(c1)CC[C@@H]2N1CCc2cc(O)c(C=O)cc2C1=O ?
Completion: ≥ 2000 nM
